Measured Function remaining percentage (5 µg/ml), listed per entry for reference.
Molecular target: T1, CD55 (UniProt P08174 35-353, limits assumed)
T1 construct: whole, on cells; also called CD55 on Rituximab resistant Raji cells (RRCL)
T1 sequence (looked up): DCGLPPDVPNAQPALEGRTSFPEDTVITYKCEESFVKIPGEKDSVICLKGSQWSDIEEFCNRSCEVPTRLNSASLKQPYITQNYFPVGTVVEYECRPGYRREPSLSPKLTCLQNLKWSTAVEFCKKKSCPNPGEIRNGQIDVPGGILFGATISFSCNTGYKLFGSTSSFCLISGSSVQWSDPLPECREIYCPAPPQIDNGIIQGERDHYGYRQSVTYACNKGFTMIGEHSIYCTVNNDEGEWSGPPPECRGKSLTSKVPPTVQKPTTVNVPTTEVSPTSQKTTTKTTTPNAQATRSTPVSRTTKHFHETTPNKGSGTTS
Assay: binding at 5 µg/ml against the unmutated antibody (SEQ ID NO: 14 + 15); format not stated
Lab book: enter the figure in %, no units written.

{"columns": ["binder", "Function remaining percentage (5 µg/ml) / %"],
 "data": [
  ["anti-CD55 antibody with CD55VH (SEQ ID NO: 14) N100H and VL (SEQ ID NO: 15) (antibody, V domains shown, also called Test 21) VH: QVKLQESGGGLVQPGGSLKLSCAASGFTFSGYGMSWIRQTPDKRLEWVATINSGGSYTYYSDSVKGRFTISRDNVKNTLYLQMSSLKSEDTAMYYCARRHGTLYYYLMDYWGRGTLVTVSS VL: QSVLTQPPSASGSPGQSVTISCTGTSSDVGGYNYVSWYQQHPGKAPKFMIYDVSKRPSGVSNRFSGSKSGNTASLTISGVQAEDEADYYCSSYTSASTVIFGGGTKLTVL", 72]
]}

Please turn your attention to the following entry.
Give the measured Function remaining percentage (5 µg/ml) of anti-CD55 antibody with CD55VH (SEQ ID NO: 14) N52G and VL (SEQ ID NO: 15) (antibody, V domains shown, also called Test 4) VH: QVKLQESGGGLVQPGGSLKLSCAASGFTFSGYGMSWIRQTPDKRLEWVATIGSGGSYTYYSDSVKGRFTISRDNVKNTLYLQMSSLKSEDTAMYYCARRNGTLYYYLMDYWGRGTLVTVSS VL: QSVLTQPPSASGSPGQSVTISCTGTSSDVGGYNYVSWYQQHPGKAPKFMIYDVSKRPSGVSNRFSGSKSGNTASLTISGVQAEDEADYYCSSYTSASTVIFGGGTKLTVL .
28
